- test: GHS categories as the set defines them, by LD50: 1 up to 5, 2 up to 50, 3 up to 300, 4 up to 2000, 5 above 2000 mg/kg
- conditionInfo: rat; in vivo; po
Quick reference: GHS category of the listed items.
API doc: respond with a numeric literal and nothing else, no unit.

Solved entries:
CC(C(=O)C(N)=O)c1ccc(N2Cc3ccccc3C2=O)cc1 (configuration not stated)
5
CCN(C(=O)CCCn1nnnc1C)C1CCCCC1
4
COc1ccc(C(=O)N2CCN(c3ccc4c(c3)CCC(=O)N4)CC2)cc1OC
5

Query :: Identify measured GHS category corresponding to "CN(C)CCCNc1nc2cc(Cl)ccc2o1"
Result :: 4

Query :: Identify measured GHS category corresponding to "Oc1c(I)cc(Cl)c2cccnc12"
Result :: 5

Query :: Identify measured GHS category corresponding to "CCCOC(=O)[C@H](C)O"
Result :: 5

Query :: Identify measured GHS category corresponding to CCCC1OC(Cn2cncn2)(c2cc3ccccc3o2)OCC1CC (configuration not stated)
Result :: 4

###

- test: GHS categories as the set defines them, by LD50: 1 up to 5, 2 up to 50, 3 up to 300, 4 up to 2000, 5 above 2000 mg/kg
- conditionInfo: rat; in vivo; po
observationType: GHS category
API doc: respond with a numeric literal and nothing else, no unit.

Solved entries:
CC(C)(C)c1cc(S)c(O)c(C(C)(C)C)c1
5
CC1(C)COC(Cn2cncn2)(c2cc3cc(Cl)cc(Cl)c3o2)OC1
4
O=C(Nc1ccc(NC(=O)c2cc3ccccc3c(N=Nc3cc(Cl)ccc3Cl)c2O)c(Cl)c1)c1cc2ccccc2c(N=Nc2cc(Cl)ccc2Cl)c1O
5
CCCCCCCCCCCCCCCCBr
5
CCCC(=O)OC(C)(C)Cc1ccccc1
5

We next turn to a different compound, shown below.
Query :: Identify measured GHS category corresponding to C=C(C)CCCC(C)CCOC(=O)CC (stereo unspecified)
Result :: 5

###

- test: GHS categories as the set defines them, by LD50: 1 up to 5, 2 up to 50, 3 up to 300, 4 up to 2000, 5 above 2000 mg/kg
- conditionInfo: rat; in vivo; po
Quick reference: GHS category of the listed items.
API doc: respond with a numeric literal and nothing else, no unit.

Solved entries:
CCCCCCCC/C=C\CCCCCCCC(=O)OCC
5
O=S(=O)(O)c1cccc(N=Nc2ccc(N=Nc3ccc(Nc4ccccc4)c4c(S(=O)(=O)O)cccc34)c3ccccc23)c1
5
CCCC(=O)CC(=O)OCC
4
CCCCC(CC)COP(=O)(Oc1ccccc1)Oc1ccccc1 (stereo unspecified)
5
CC1CC(OC(=O)COc2ccccc2Cl)CC(C)(C)C1 (stereo unspecified)
5

Query :: Identify measured GHS category corresponding to "CC(C)(Sc1cc(C(C)(C)C)c(O)c(C(C)(C)C)c1)Sc1cc(C(C)(C)C)c(O)c(C(C)(C)C)c1"
Result :: 5

Query :: Identify measured GHS category corresponding to COc1c(O)cc2c(c1O)C1OC(CO)C(O)C(O)C1OC2=O (stereo unspecified)
Result :: 5

Query :: Identify measured GHS category corresponding to OC1(c2cccs2)c2ccccc2C2=NCCN21 (stereo unspecified)
Result :: 4

Query :: Identify measured GHS category corresponding to "CO[C@H]1C=CO[C@@]2(C)Oc3c(C)c(O)c4c(c3C2=O)C2=NC3(CCN(CC(C)C)CC3)NC2=C(NC(=O)C(C)=CC=C[C@H](C)[C@H](O)[C@@H](C)[C@@H](O)[C@@H](C)[C@H](OC(C)=O)[C@@H]1C)C4=O"
Result :: 5

Query :: Identify measured GHS category corresponding to COCC1=C(C(=O)OC(C)OC(=O)OC(C)C)N2C(=O)[C@@H](NC(=O)/C(=N\OC)c3csc(N)n3)[C@H]2SC1 (stereo partly specified)
Result :: 5

###

Quick reference: GHS category of the listed items.
- test: GHS categories as the set defines them, by LD50: 1 up to 5, 2 up to 50, 3 up to 300, 4 up to 2000, 5 above 2000 mg/kg
- conditionInfo: rat; in vivo; po
- Text: […]The data set underlying the modeling effort for this project was initially compiled by NICEATM and U.S. EPA’s CCTE. Briefly, LD50 data were collected from rat acute oral systemic toxicity tests, including limit tests, ranges/confidence intervals, and discrete LD50 values. The full data set included 21,200 LD50 entries for 15,688 substances. […]
API doc: respond with a numeric literal and nothing else, no unit.

C=C(C)CCC[C@H](C)CCOC(=O)Cc1ccccc1
5
O=C(O)C1CNC1
5
CCCCC1C(=O)N(c2ccccc2)N(c2ccc(S(C)(=O)=O)cc2)C1=O (centres undefined)
4

Query :: Identify measured GHS category corresponding to "Brc1nc[nH]c1Br"
Result :: 4

###

- test: rat acute oral toxicity
- conditionInfo: in vivo
observationType: log10 of LD50 (log10 of the value in mg/kg)
The figures below represent log10 of LD50, where LD50 is stated in mg/kg.

Solved entries:
CC(=O)O[Si](C)(OC(C)=O)OC(C)=O
3.19
CN(C)C(CSC(N)=O)CSC(N)=O
2.53
CC(C)c1cccc(C(C)C)c1N
3.51
Nc1cccc([N+](=O)[O-])c1
2.73
CC(C)(C)c1ccc(CSc2cnn(C(C)(C)C)c(=O)c2Cl)cc1
2.76
Cn1cnc([N+](=O)[O-])c1Sc1ncnc2nc[nH]c12
2.60
CCC(CC)Nc1c([N+](=O)[O-])cc(C)c(C)c1[N+](=O)[O-]
3.02
Nc1ccccc1[N+](=O)[O-]
3.20

We next turn to a different compound, shown below.
Query :: Identify measured log10 of LD50 corresponding to "Clc1cc(-c2cc(Cl)c(Cl)c(Cl)c2)cc(Cl)c1Cl"
Result :: 3.63

###

Quick reference: GHS category of the listed items.
- test: GHS categories as the set defines them, by LD50: 1 up to 5, 2 up to 50, 3 up to 300, 4 up to 2000, 5 above 2000 mg/kg
- conditionInfo: rat; in vivo; po

Solved entries:
CC(C)Cc1ccc(OP(=O)(Oc2ccc(CC(C)C)cc2)Oc2ccc(CC(C)C)cc2)cc1
5
CC(C)(C)c1cc(Cn2c(=O)n(Cc3cc(C(C)(C)C)c(O)c(C(C)(C)C)c3)c(=O)n(Cc3cc(C(C)(C)C)c(O)c(C(C)(C)C)c3)c2=O)cc(C(C)(C)C)c1O
5
CCN(Cc1cccc(S(=O)(=O)O)c1)c1ccc(C(=C2C=CC(=[N+](CC)Cc3cccc(S(=O)(=O)O)c3)C=C2)c2ccc(O)cc2S(=O)(=O)[O-])cc1
5
CC(C)OC(=O)CCC/C=C\C[C@@H]1[C@@H](CC[C@@H](O)CCc2ccccc2)[C@H](O)C[C@@H]1O
1
CC(=O)S[C@H]1CC(=O)C=C2C[C@@H](SC(C)=O)[C@@H]3[C@H](CC[C@@]4(C)[C@H]3CC[C@]4(C)O)[C@]21C
5

Query :: Identify measured GHS category corresponding to CNCC1CCC(N)C(OC2C(N)CC(N)C(OC3OCC(C)(O)C(NC)C3O)C2O)O1 (centres undefined)
Result :: 5

Query :: Identify measured GHS category corresponding to "CCN(CC)c1nc2ccccn2c(=O)c1C=NN1CCOC1=O"
Result :: 3

Query :: Identify measured GHS category corresponding to "CC(=O)c1c(C)c([N+](=O)[O-])c(C(C)(C)C)c([N+](=O)[O-])c1C"
Result :: 5

Query :: Identify measured GHS category corresponding to O=C(CC1Sc2ccccc2NC1=O)Nc1cccc(Cl)c1 (centres undefined)
Result :: 5

###

- test: GHS categories as the set defines them, by LD50: 1 up to 5, 2 up to 50, 3 up to 300, 4 up to 2000, 5 above 2000 mg/kg
- conditionInfo: rat; in vivo; po
Quick reference: GHS category of the listed items.

CC(=O)OCOC(=O)C1=C(COC(N)=O)SC2C(C(C)O)C(=O)N12 (stereo not drawn)
5
CC(C)=CCC(C#N)(CCN(C)C)c1cccc2ccccc12 (stereo not drawn)
4

Query :: Identify measured GHS category corresponding to C=COCC1CCC(COC=C)CC1 (stereo not drawn)
Result :: 5

Query :: Identify measured GHS category corresponding to "NC(N)=Nc1nc(CSCC/N=C/NS(=O)(=O)c2ccc(Br)cc2)cs1"
Result :: 5

Query :: Identify measured GHS category corresponding to CC1N=C(c2ccccc2F)c2c(ccc(NC(=O)NCCO)c2Br)N(C)C1=O (stereo not drawn)
Result :: 5

Query :: Identify measured GHS category corresponding to "Cc1ccccc1OC(=O)c1ccccc1OC(N)=O"
Result :: 5

###

- test: rat acute oral toxicity
- conditionInfo: in vivo
Quick reference: LD50 of the listed items.
The reply should contain only the number, in mg/kg.

CNC(=O)ON=C1C(Cl)C2CC(C#N)C1C2 (stereo unspecified)
19
CCOc1ccc2c(c1)C(C)=CC(C)(C)N2
800
C/C=C\CC1=C(C)[C@@H](OC(=O)[C@@H]2[C@@H](/C=C(\C)C(=O)OC)C2(C)C)CC1=O
1030
CCCCC(CC)(CO)CO
2800
CCCCNC(=O)OCC#CI
1100

Query :: Identify measured LD50 corresponding to CCCCC(CC)COS(=O)(=O)O (stereo unspecified)
Result :: 2840

Query :: Identify measured LD50 corresponding to "CC/C=C\C#N"
Result :: 198

Query :: Identify measured LD50 corresponding to "CC(C)CCCCCCCOP(OCCCCCCCC(C)C)OCCCCCCCC(C)C"
Result :: 12000

Query :: Identify measured LD50 corresponding to "CCOP(=S)(OCC)Oc1ccc([N+](=O)[O-])cc1"
Result :: 2.1

Query :: Identify measured LD50 corresponding to CCCCC(Oc1ccc([N+](=O)[O-])cc1C=O)C(=O)O (stereo unspecified)
Result :: 500

Query :: Identify measured LD50 corresponding to "O=[N+]([O-])c1ccc(O)cc1"
Result :: 170

Query :: Identify measured LD50 corresponding to "O=c1nc(O)n(Cl)c(=O)n1Cl"
Result :: 1670

Query :: Identify measured LD50 corresponding to "NC1CCCCC1"
Result :: 11
